experiment: Microsomal metabolic stability assay; assay type: in vitro ADME; settings: pH 7.4; human liver microsomes, 0.5 mg/mL protein, 1 μM compound; read-out: Human LM Clint
The threshold is inclusive: microsomal CLint at 1 μM of exactly 30 µL/min/mg counts as true; values below receive false.

molecule	class_name
[2H]C([2H])([2H])NC(=O)c1cnc(Nc2ccc(F)cn2)cc1Nc1nn(C)c2ccn(CC)c(=O)c12	false
[2H]C([2H])([2H])NC(=O)c1cnc(NC(=O)C2CC2)cc1Nc1ccc2cnn(CC(N)=O)c2c1OC	false
[2H]C([2H])([2H])NC(=O)c1cnc(NC(=O)C2CC2)cc1Nc1ccc2nnc(CC)n2c1OC	false
CCn1ccc2c(c(Nc3cc(NC(=O)C4CC4)nnc3C(=O)NC)cn2C)c1=O	true
CNC(=O)c1cnc2nc1Nc1cc(cc(-c3ncn(C)n3)c1OC)COCc1cccc(c1)N2	false
[2H]C([2H])([2H])NC(=O)c1cnc(NC(=O)C2CC2)cc1Nc1cn(CC)c2ncn([C@H](C)C(F)(F)F)c(=O)c12 (single isomer, unassigned) [Example 254A]	false
[2H]C([2H])([2H])NC(=O)c1cnc(Nc2ccc(C#N)cc2)nc1Nc1cccc(-c2ncn(C)n2)c1OC	false
[2H]C([2H])([2H])NC(=O)c1cnc(Nc2ccc(F)cc2)nc1Nc1cccc(-c2ncn(C)n2)c1OC	false
[2H]C([2H])([2H])NC(=O)c1cnc(NC(=O)C2CC2)cc1Nc1csc2cnn(C(C)C)c(=O)c12	false
[2H]C([2H])([2H])NC(=O)c1cnc(NC(=O)C2CC2)cc1Nc1ccc2cnn(CC(F)F)c2c1OC	true
[2H]C([2H])([2H])NC(=O)c1nnc2cc1Nc1cc(cc(-c3ncn(C)n3)c1OC)COCc1cc(F)cc(n1)N2	false
[2H]C([2H])([2H])NC(=O)c1cnc(NC(=O)C2CC2)cc1Nc1cn(CCOC)c2ccn(CC)c(=O)c12	false
[2H]C([2H])([2H])NC(=O)c1cnc(NC(=O)C2CC2)cc1Nc1csc2c(Cl)cn(C)c(=O)c12	true
CCn1ccc2c(c(Nc3cc(Nc4ccc(F)cn4)ncc3C(=O)NC)cn2C)c1=O	true
[2H]C([2H])([2H])NC(=O)c1cnc(NC(=O)C2CC2)cc1Nc1csc2cnn(C(C)C(F)(F)F)c(=O)c12 (stereo not shown)	false
[2H]C([2H])([2H])NC(=O)c1cnc(NC(=O)C2CC2)cc1Nc1cn(C)c2c(F)cn(CC(F)(F)F)c(=O)c12	true
[2H]C([2H])([2H])NC(=O)c1cnc(NC(=O)C2CC2)cc1Nc1nn(CC)c2ccn(CC(F)(F)F)c(=O)c12	false
[2H]C([2H])([2H])NC(=O)c1cnc(Nc2cc(C)nc(C)n2)cc1Nc1cc(F)c2cnn(CC)c2c1OC	true
CCn1ccc2c(c(Nc3cc(Nc4ncc(F)cc4F)ncc3C(=O)NC)cn2C)c1=O	true
[2H]C([2H])([2H])NC(=O)c1nnc2cc1Nc1cc(cc(-c3ncn(C)n3)c1OC)COCc1cccc(n1)N2	false
[2H]C([2H])([2H])NC(=O)c1cnc(Nc2cccc(C#N)n2)nc1Nc1cccc(-c2ncn(C)n2)c1OC	false
[2H]C([2H])([2H])NC(=O)c1cnc(Nc2ccncn2)cc1Nc1ccc2cnn(C([2H])([2H])[2H])c2c1OC	true
[2H]C([2H])([2H])NC(=O)c1cnc(NC(=O)C2CC2)cc1Nc1cc(F)c2cnn(CC)c2c1OC	true
[2H]C([2H])([2H])NC(=O)c1nnc2cc1Nc1cc(cc(-c3ccn(C)n3)c1OC)COCc1nc(ccc1F)N2	false
[2H]C([2H])([2H])NC(=O)c1cnc(Nc2cc(F)c(F)cn2)cc1Nc1cn(C)c2c(F)cn(C)c(=O)c12	true
[2H]C([2H])([2H])NC(=O)c1cnc(NC(=O)C2CC2)cc1Nc1ccc2cnn(CC)c2c1OC([2H])([2H])[2H]	false
[2H]C([2H])([2H])NC(=O)c1cnc2cc1Nc1cc(cc(-c3ncn(C4CC4)n3)c1OC)COCc1nc(ccc1F)N2	false
CNC(=O)c1cnc(NC(=O)C2CC2)cc1Nc1cn(C)c2ccn(C)c(=O)c12	false
